Where these numbers come from: PubChem BioAssay AID463229

Tested on: INS-1E rat beta cells, no cytokines, CellTiter-Glo ATP, 48 h
protocol text: cytokine-free beta-cell viability effect – INS-1E rat cells, ATP luminescence, cherry pick, counter-screen for beta-cell apoptosis protection project, dose response (AID 463229)
reported property: AC50

[[record]]
compound = "CCOc1ccc(-n2c(-c3ccc(Br)cc3)c[n+]3c2CCCCC3)cc1"
result = "1 µM"

[[record]]
compound = "COc1ccccc1N1CCN(Cc2cc(Br)c(O)c3ncccc23)CC1"
result = "5.72 µM"

[[record]]
compound = "COc1ccccc1NC(=O)Cn1cc(C(=O)c2ccco2)c2ccccc21"
result = "8.7 µM"

[[record]]
compound = "O=S(=O)(c1ccc(Cl)cc1)N1CCN(c2ncnc3sccc23)CC1"
result = "6.65 µM"

[[record]]
compound = "CCOC(=O)c1[nH]cnc1N=Nc1c(O)ccc2ccccc12"
result = "2.28 µM"

[[record]]
compound = "CCOC(=O)C(C(C)=O)c1c(Br)c(O)c(O)c2c(C(=O)c3ccc(C)cc3)coc12 (stereo unspecified)"
result = "2.9 µM"

[[record]]
compound = "CCn1c(-c2ccccc2)c(C(=O)CCl)c2ccccc21"
result = "11.6 µM"

[[record]]
compound = "COc1ccc(CNCCC(c2ccc(OC(C)C)cc2)c2ccccc2OC)cc1 (stereo unspecified)"
result = "12.2 µM"

[[record]]
compound = "CC(C)(C)c1cc([N+](=O)[O-])cc(C(C)(C)C)c1O"
result = "2.8 µM"

[[record]]
compound = "N#CC1=C(N)Oc2c(ccc3cccnc23)C1c1cccnc1 (stereo unspecified)"
result = "7.5 µM"

[[record]]
compound = "O=C(CSC1c2ccccc2-c2ccccc21)N/N=C/c1ccccc1O"
result = "6.8 µM"


----------
Reported AC50 values for a set of molecules
Test system: INS-1E rat beta cells, no cytokines, CellTiter-Glo ATP, 48 h
protocol text: cytokine-free beta-cell viability effect – INS-1E rat cells, ATP luminescence, cherry pick, counter-screen for beta-cell apoptosis protection project, dose response (AID 463229)
reported property: AC50

[[record]]
molecule = "C[n+]1c2n(c3ccccc31)N=C(c1cc(C(C)(C)C)c(O)c(C(C)(C)C)c1)CS2"
result = "0.39 µM"

[[record]]
molecule = "CCC(CO)[n+]1c(C)cc(/C=C2\\Sc3ccccc3N2Cc2ccccc2)cc1C (stereo not given)"
result = "0.765 µM"

[[record]]
molecule = "O=[N+]([O-])c1ccc(-c2nc3ccc([N+](=O)[O-])cc3[nH]2)cc1"
result = "6.93 µM"

[[record]]
molecule = "Cc1cc(C)cc(OCC(O)CN2CCC(CN3C(=O)c4cccc5cccc(c45)C3=O)CC2)c1 (stereo not given)"
result = "7.97 µM"

[[record]]
molecule = "CCN(CC)CCn1nc2c3c(cccc3c1=O)-c1ccccc1-2"
result = "6.74 µM"

[[record]]
molecule = "Cc1nc2ccccc2n1Cc1ccc(Br)cc1"
result = "5.63 µM"

[[record]]
molecule = "O=C(Nc1ccc(Cc2ccncc2)cc1)c1ccc([N+](=O)[O-])o1"
result = "10.1 µM"

[[record]]
molecule = "CCCNC1=C(N(C(C)=O)c2cccc(F)c2)C(=O)c2ccccc2C1=O"
result = "3.06 µM"

[[record]]
molecule = "Cc1cc([N+](=O)[O-])nn1Cc1ccc(C(=O)N/N=C/c2ccc(O)cc2O)cc1"
result = "6.27 µM"

[[record]]
molecule = "CCN(CC)c1ccc(/C=N/NC(=O)CCC(=O)NCc2ccccc2)c(O)c1"
result = "7.22 µM"


----------
Test system: INS-1E rat beta cells, no cytokines, CellTiter-Glo ATP, 48 h
protocol text: cytokine-free beta-cell viability effect – INS-1E rat cells, ATP luminescence, cherry pick, counter-screen for beta-cell apoptosis protection project, dose response (AID 463229)
reported property: AC50

[[record]]
compound = "O=C(Cn1c(-c2ccccc2)c[n+]2ccsc12)c1ccc([N+](=O)[O-])cc1"
result = "6.04 µM"

[[record]]
compound = "COc1ccccc1CNCC(O)Cn1c2ccccc2c2ccccc21 (stereo unspecified)"
result = "12.9 µM"

[[record]]
compound = "COc1ccc(C(=O)N/N=C/c2cc(Br)ccc2O)cc1OC"
result = "7.2 µM"

[[record]]
compound = "Cc1ccc(C)c(S(=O)(=O)Nc2ccc(O)c3ccccc23)c1"
result = "14.1 µM"

[[record]]
compound = "C[n+]1c2n(c3ccccc31)N=C(c1ccc(-c3ccccc3)cc1)CS2"
result = "1.74 µM"

[[record]]
compound = "Clc1ccc(-c2cc(-c3nnc4n3CCCCC4)c3ccccc3n2)cc1"
result = "4.91 µM"


----------
System: INS-1E rat beta cells, no cytokines, CellTiter-Glo ATP, 48 h
protocol text: cytokine-free beta-cell viability effect – INS-1E rat cells, ATP luminescence, cherry pick, counter-screen for beta-cell apoptosis protection project, dose response (AID 463229)
reported property: AC50

[[record]]
molecule = "NC(=O)c1c(-c2ccc(Cl)cc2Cl)csc1NC(=O)Cc1ccccc1"
result = "4.08 µM"

[[record]]
molecule = "C=CCc1cccc(/C=N/NC(=O)c2ccccc2OC)c1O"
result = "9.61 µM"

[[record]]
molecule = "COc1ccc(Nc2ccc3c(c2)=NC2(CCCCC2)[N+]=3[O-])cc1"
result = "7.8 µM"

[[record]]
molecule = "CC1CCc2c(sc3nc(C4CC4)nc(N4CCN(C(=O)c5ccco5)CC4)c23)C1 (stereo not given)"
result = "3.01 µM"

[[record]]
molecule = "Cc1ccc(NC(=O)c2cc(S(=O)(=O)NCCC3=CCCCC3)ccc2F)cc1F"
result = "6.58 µM"

